# IC50 per record follows
- SYSTEM_NAME: UniProt P10276
- TEST_SUMMARY: Transactivation competition assay (antagonist activity) in transfected HeLa cells
- Sequence (P10276 with tags, fused parts or gaps limits assumed, species assumed): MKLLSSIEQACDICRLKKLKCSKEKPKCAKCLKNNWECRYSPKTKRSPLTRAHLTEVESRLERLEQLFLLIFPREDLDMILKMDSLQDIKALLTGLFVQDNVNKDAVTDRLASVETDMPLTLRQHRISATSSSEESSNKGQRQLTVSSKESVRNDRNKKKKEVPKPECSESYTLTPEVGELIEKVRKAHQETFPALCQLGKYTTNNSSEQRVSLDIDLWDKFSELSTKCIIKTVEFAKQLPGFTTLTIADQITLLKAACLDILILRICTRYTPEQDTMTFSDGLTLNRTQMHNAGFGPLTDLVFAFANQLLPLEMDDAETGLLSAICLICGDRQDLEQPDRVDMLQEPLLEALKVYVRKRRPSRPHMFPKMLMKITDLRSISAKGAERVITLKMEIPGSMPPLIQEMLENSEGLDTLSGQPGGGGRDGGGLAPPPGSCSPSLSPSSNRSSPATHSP

# MOLECULE_SMILES, SYSTEM_NAME, MEASUREMENT_KIND, MEASURED_VALUE
rows = [
    ("CC1(C)CC=C(C#Cc2ccccc2)c2cc(/C=C/c3ccc(C(=O)O)cc3)ccc21", "UniProt P10276", "IC50", "200 nM"),
    ("CC1(C)CC=C(c2ccc3ccccc3c2)c2cc(/C=C/c3ccc(C(=O)O)cc3)ccc21", "UniProt P10276", "IC50", "300 nM"),
    ("COc1ccc(C2=CCC(C)(C)c3ccc(/C=C/c4ccc(C(=O)O)cc4)cc32)cc1", "UniProt P10276", "IC50", "400 nM"),
    ("CC1(C)CC=C(c2ccccc2)c2cc(/C=C/c3ccc(C(=O)O)cc3)ccc21", "UniProt P10276", "IC50", "200 nM"),
]

Read the next record carefully.
[Q] Look at this compound and give its reported IC50. CC1(C)CC=C(c2ccccc2)c2cc(/C=C/c3ccc(C(=O)O)cc3Cl)ccc21
[A] 3000 nM

---

- SYSTEM_NAME: RAR-β (Homo sapiens)
- TEST_SUMMARY: Receptor binding competition assay with radioactive t-RA
- CONDITION_INFO: apparent Kd from competition with radioactive t-RA, recombinant RAR; read-out: Direct Binding RAR-β Kd
- Sequence (P10826 whole entry, species assumed): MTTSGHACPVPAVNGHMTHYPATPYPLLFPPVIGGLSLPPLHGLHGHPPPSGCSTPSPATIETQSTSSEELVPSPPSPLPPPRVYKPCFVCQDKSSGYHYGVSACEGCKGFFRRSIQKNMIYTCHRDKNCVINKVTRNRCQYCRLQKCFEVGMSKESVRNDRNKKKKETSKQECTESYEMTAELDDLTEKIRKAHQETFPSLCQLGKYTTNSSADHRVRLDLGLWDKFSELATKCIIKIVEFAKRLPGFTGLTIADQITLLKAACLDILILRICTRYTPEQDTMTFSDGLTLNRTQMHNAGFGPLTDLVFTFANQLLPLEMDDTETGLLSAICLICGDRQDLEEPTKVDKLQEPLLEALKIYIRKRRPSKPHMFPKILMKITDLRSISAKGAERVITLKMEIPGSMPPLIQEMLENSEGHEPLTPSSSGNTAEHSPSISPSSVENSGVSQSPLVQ
MEASUREMENT_KIND: Kd (nM)
Write the value in nM as a bare number.

# COMPOUND, Kd [nM]
records = [
    ("CC1(C)CC=C(c2ccc3ccccc3c2)c2cc(/C=C/c3ccc(C(=O)O)cc3)ccc21 [Compound 6]", 57),
    ("CC1(C)CC=C(C#Cc2ccccc2)c2cc(/C=C/c3ccc(C(=O)O)cc3)ccc21 [Compound 5]", 2.9),
    ("COc1ccc(C2=CCC(C)(C)c3ccc(/C=C/c4ccc(C(=O)O)cc4)cc32)cc1 [Compound 7]", 6.1),
]

Read the next record carefully.
[Q] Look at this compound and give its reported Kd. CC1(C)CC=C(c2ccccc2)c2cc(/C=C/c3ccc(C(=O)O)cc3Cl)ccc21 [Compound 8]
[A] 2.8

---

- SYSTEM_NAME: RAR-γ (Homo sapiens, UniProt P13631)
- TEST_SUMMARY: Receptor binding competition assay with radioactive t-RA
- CONDITION_INFO: apparent Kd from competition with radioactive t-RA, recombinant RAR; read-out: Direct Binding RAR-γ Kd
- Sequence (P13631 whole entry, species assumed, the tested form may be a part): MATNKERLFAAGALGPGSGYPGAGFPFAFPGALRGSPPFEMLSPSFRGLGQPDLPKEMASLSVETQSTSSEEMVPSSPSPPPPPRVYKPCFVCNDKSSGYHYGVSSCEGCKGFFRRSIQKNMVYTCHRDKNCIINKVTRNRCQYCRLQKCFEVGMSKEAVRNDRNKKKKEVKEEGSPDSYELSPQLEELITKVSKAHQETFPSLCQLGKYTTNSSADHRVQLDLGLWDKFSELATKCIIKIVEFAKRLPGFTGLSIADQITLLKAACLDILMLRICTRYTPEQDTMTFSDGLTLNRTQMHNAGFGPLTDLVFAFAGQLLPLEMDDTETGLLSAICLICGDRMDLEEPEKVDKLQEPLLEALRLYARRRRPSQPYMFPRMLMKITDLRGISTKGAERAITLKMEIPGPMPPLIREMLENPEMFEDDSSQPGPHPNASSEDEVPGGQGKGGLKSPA
pKd: −log10 of the molar value.
Decision: pKd >= 7 yields 1 (yes), all other cases yield 0 (no).

Observe how each entry below is paired with its result.
# MOLECULE, GROUP
data = [
    ("CC1(C)CC=C(c2ccc3ccccc3c2)c2cc(/C=C/c3ccc(C(=O)O)cc3)ccc21 [Compound 6]", "1 (yes)"),
    ("CC1(C)CC=C(c2ccccc2)c2cc(/C=C/c3ccc(C(=O)O)cc3)ccc21 [Compound 4]", "1 (yes)"),
    ("CC1(C)CC=C(c2ccccc2)c2cc(/C=C/c3ccc(C(=O)O)cc3Cl)ccc21 [Compound 8]", "0 (no)"),
]

Please examine the following record next.
[Q] Given COc1ccc(C2=CCC(C)(C)c3ccc(/C=C/c4ccc(C(=O)O)cc4)cc32)cc1 [Compound 7] , state whether its pKd is at least 7.
[A] 1 (yes)

---

- SYSTEM_NAME: RAR-γ (Homo sapiens, UniProt P13631)
- TEST_SUMMARY: Receptor transactivation, GAL4-RAR chimeric receptor/CAT reporter in HeLa cells
- Assay type: cell-based
- CONDITION_INFO: 24 hours
- Sequence (P13631 with tags, fused parts or gaps limits assumed, species assumed): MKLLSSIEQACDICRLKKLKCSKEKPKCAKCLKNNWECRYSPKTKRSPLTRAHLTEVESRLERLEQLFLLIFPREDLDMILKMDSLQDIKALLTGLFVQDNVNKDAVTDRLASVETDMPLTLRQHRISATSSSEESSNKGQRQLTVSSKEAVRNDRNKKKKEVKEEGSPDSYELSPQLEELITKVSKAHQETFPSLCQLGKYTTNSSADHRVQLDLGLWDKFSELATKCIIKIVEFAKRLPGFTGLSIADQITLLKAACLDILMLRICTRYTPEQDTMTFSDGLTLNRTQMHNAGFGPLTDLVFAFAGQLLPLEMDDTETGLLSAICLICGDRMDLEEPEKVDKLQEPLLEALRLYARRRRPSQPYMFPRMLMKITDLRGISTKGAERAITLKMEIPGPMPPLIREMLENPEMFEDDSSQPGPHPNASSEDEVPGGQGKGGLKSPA
# Transactivation RAR-γ % MAX per record follows
Write the value in % as a bare number.

# COMPOUND, MEASURED_VALUE
rows = [
    ("CC1=C(/C=C/C(C)=C/C=C/C(C)=C/C(=O)O)C(C)(C)CCC1 [All Trans RA, all trans retinoic acid, reference compound]", 100),
    ("COc1ccc(C2=CCC(C)(C)c3ccc(/C=C/c4ccc(C(=O)O)cc4)cc32)cc1 [Compound 7]", 0),
    ("CC1(C)CC=C(C#Cc2ccccc2)c2cc(/C=C/c3ccc(C(=O)O)cc3)ccc21 [Compound 5]", 0),
    ("CC1(C)CC=C(c2ccc3ccccc3c2)c2cc(/C=C/c3ccc(C(=O)O)cc3)ccc21 [Compound 6]", 0),
    ("CC1(C)CC=C(c2ccccc2)c2cc(/C=C/c3ccc(C(=O)O)cc3)ccc21 [Compound 4]", 0),
]

Read the next record carefully.
[Q] Look at this compound and give its reported Transactivation RAR-γ % MAX. CC1(C)CC=C(c2ccccc2)c2cc(/C=C/c3ccc(C(=O)O)cc3Cl)ccc21 [Compound 8]
[A] 0

---

- SYSTEM_NAME: RAR-α (Homo sapiens)
- Sequence (P10276 1-462): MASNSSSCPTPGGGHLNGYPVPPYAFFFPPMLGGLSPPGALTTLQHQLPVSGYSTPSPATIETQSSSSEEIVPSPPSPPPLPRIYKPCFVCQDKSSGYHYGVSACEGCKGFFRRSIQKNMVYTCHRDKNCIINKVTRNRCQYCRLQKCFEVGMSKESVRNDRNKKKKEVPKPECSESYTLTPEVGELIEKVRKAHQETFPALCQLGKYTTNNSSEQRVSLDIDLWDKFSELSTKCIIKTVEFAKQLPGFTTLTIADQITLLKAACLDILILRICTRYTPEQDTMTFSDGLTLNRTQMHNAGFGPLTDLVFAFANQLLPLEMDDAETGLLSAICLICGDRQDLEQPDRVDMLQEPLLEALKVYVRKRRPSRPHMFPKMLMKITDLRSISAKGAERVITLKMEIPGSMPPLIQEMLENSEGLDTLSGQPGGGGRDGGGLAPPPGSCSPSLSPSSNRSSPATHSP
- TEST_SUMMARY: Receptor binding competition assay with radioactive t-RA
- CONDITION_INFO: apparent Kd from competition with radioactive t-RA, recombinant RAR; read-out: Direct Binding RAR-α Kd
MEASUREMENT_KIND: pKd
Here pKd is given on a logarithmic scale as minus log10 of the concentration in mol/L.

Answered cases to consult:
# COMPOUND, pKd
rows = [
    ("CC1(C)CC=C(c2ccc3ccccc3c2)c2cc(/C=C/c3ccc(C(=O)O)cc3)ccc21 [Compound 6]", 8.70),
    ("CC1(C)CC=C(c2ccccc2)c2cc(/C=C/c3ccc(C(=O)O)cc3Cl)ccc21 [Compound 8]", 6.70),
]

[Q] Look at this compound and give its reported pKd. CC1(C)CC=C(C#Cc2ccccc2)c2cc(/C=C/c3ccc(C(=O)O)cc3)ccc21 [Compound 5]
[A] 8.38

[Q] Look at this compound and give its reported pKd. COc1ccc(C2=CCC(C)(C)c3ccc(/C=C/c4ccc(C(=O)O)cc4)cc32)cc1 [Compound 7]
[A] 8.89

[Q] Look at this compound and give its reported pKd. CC1(C)CC=C(c2ccccc2)c2cc(/C=C/c3ccc(C(=O)O)cc3)ccc21 [Compound 4]
[A] 9.00

---

- SYSTEM_NAME: RAR-α (Homo sapiens, UniProt P10276)
- TEST_SUMMARY: Transactivation competition assay (antagonist activity) in transfected HeLa cells
- Type: cell-based
- CONDITION_INFO: inhibition of transactivation by 10^−7 M t-RA, 16 hours
MEASUREMENT_KIND: Competition RAR-α % MAX (%)
Write the value in % as a bare number.

Answered cases to consult:
# MOLECULE, Competition RAR-α % MAX / %
measured = [
    ("CC1(C)CC=C(c2ccccc2)c2cc(/C=C/c3ccc(C(=O)O)cc3)ccc21 [Compound 4]", 100),
    ("CC1(C)CC=C(C#Cc2ccccc2)c2cc(/C=C/c3ccc(C(=O)O)cc3)ccc21 [Compound 5]", 100),
    ("CC1(C)CC=C(c2ccccc2)c2cc(/C=C/c3ccc(C(=O)O)cc3Cl)ccc21 [Compound 8]", 80),
    ("CC1(C)CC=C(c2ccc3ccccc3c2)c2cc(/C=C/c3ccc(C(=O)O)cc3)ccc21 [Compound 6]", 100),
]

Read the next record carefully.
[Q] For the record COc1ccc(C2=CCC(C)(C)c3ccc(/C=C/c4ccc(C(=O)O)cc4)cc32)cc1 [Compound 7] , what value of Competition RAR-α % MAX is listed for RAR-α (Homo sapiens, UniProt P10276)?
[A] 100

---

- SYSTEM_NAME: RAR-β (Homo sapiens, UniProt P10826)
- TEST_SUMMARY: Transactivation competition assay (antagonist activity) in transfected HeLa cells
- Assay type: cell-based
- CONDITION_INFO: inhibition of transactivation by 10^−7 M t-RA, 16 hours
- Sequence (P10826 with tags, fused parts or gaps limits assumed, species assumed): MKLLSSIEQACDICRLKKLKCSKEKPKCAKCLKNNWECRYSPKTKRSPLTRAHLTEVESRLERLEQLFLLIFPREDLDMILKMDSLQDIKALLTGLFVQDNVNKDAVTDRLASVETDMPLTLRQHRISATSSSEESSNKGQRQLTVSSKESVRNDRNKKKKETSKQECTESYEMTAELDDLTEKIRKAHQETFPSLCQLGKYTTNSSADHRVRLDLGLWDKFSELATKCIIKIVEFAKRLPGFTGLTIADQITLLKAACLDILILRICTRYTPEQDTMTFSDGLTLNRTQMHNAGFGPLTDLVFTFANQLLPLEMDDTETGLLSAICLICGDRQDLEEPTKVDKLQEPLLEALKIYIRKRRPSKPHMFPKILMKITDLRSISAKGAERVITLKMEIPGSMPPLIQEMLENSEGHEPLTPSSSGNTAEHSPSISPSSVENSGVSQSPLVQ
# Competition RAR-β % MAX per record follows
Write the value in % as a bare number.

Answered cases to consult:
# COMPOUND, MEASUREMENT_KIND, MEASURED_VALUE
measured = [
    ("CC1(C)CC=C(C#Cc2ccccc2)c2cc(/C=C/c3ccc(C(=O)O)cc3)ccc21 [Compound 5]", "Competition RAR-β % MAX", 100),
    ("CC1(C)CC=C(c2ccccc2)c2cc(/C=C/c3ccc(C(=O)O)cc3Cl)ccc21 [Compound 8]", "Competition RAR-β % MAX", 0),
    ("CC1(C)CC=C(c2ccccc2)c2cc(/C=C/c3ccc(C(=O)O)cc3)ccc21 [Compound 4]", "Competition RAR-β % MAX", 80),
    ("CC1(C)CC=C(c2ccc3ccccc3c2)c2cc(/C=C/c3ccc(C(=O)O)cc3)ccc21 [Compound 6]", "Competition RAR-β % MAX", 100),
]

Read the next record carefully.
[Q] Look at this compound and give its reported Competition RAR-β % MAX. COc1ccc(C2=CCC(C)(C)c3ccc(/C=C/c4ccc(C(=O)O)cc4)cc32)cc1 [Compound 7]
[A] 100
